The origin of these recorded values is patent US20200101068A1.

The compounds below have reported pIC50 for PARP1 (Homo sapiens).
pIC50: −log10 of the molar value.

// solved cases for pIC50 follow
Prompt: What pIC50 value was documented for this compound, O=c1[nH]c(C2=C[C@H](N3CCN(c4ccc(C(F)(F)F)cc4)CC3)CC2)cc2ncccc12 ?
Response: 7.30 to 8.29

Prompt: What pIC50 value was documented for this compound, O=c1[nH]c(C2=C[C@H](N3CCN(c4ccc5c(c4)CCC5)CC3)CC2)cc2ncccc12 ?
Response: 8.30 to 9.30

Prompt: What pIC50 value was documented for this compound, N#Cc1ccc(N2CCN([C@H]3C=C(c4cn5cccc5c(=O)[nH]4)CC3)CC2)cc1 ?
Response: 8.30 to 9.30

Okay, next one:
Prompt: What pIC50 value was documented for this compound, O=c1[nH]c(C2=C[C@H](N3CCN(c4ccc(F)cc4F)CC3)CC2)cc2ncccc12 ?
Response: 8.30 to 9.30
